Reference source: patent US20180194862A1

Below: a set of entries, each annotated with reported Monocyte activation (THP1-Xblue, OD655).
target: human CD40 on cells (HEK293 stable transfectants, HEK-Blue CD40 cells, human B cells, monocytic cells, … (human, UniProt P25942 21-277)); assay: cell-based or functional assay
Sequence (P25942 21-277 limits assumed): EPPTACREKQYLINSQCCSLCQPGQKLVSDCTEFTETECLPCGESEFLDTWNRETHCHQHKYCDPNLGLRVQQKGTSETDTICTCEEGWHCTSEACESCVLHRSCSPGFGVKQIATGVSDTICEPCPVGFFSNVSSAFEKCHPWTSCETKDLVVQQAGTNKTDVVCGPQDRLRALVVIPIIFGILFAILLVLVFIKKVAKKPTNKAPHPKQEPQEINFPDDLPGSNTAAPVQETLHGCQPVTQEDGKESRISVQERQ
Phrase the answer as number then unit, nothing more needed.

See these solved cases before continuing.
BINDER | RESULT
AD164.76.3 (antibody, V domains shown, mouse hybridoma antibody; also called muAb10; AD164.76.2) VH: DVQLQESGPGLVKPSQSLSLTCSVTGYSITSNYYWNWIRQFPGNKLEWMGYIRYDGSNNYNPSLKNRISITRDTSKNQFFLRLNSVTTEDTATYYCTRLDYWGQGTTLTVSS VL: DAVMTQTPLSLPVSLGDQASISCRSSQSLENSNGNTFLNWFLQKPGQSPQLLIYRISNRFSGVPDRFSGSGSGTDFTLKISRVEAEDLGVYFCLQVTHVPFTFGSGTKLEIK | 0.16 OD655
AD164.14.6 (antibody, V domains shown, mouse hybridoma antibody; also called muAb9) VH: DVQLQESGPGLVKPSQSLSLTCSVTGYSITSNYYWNWIRQFPGNKLEWMGYIRYDGSNNYNPSLKNRISITRDTSKNQFFLKLNSVTTEDTATYYCARLDYWGQGTTLTVSS VL: DAVMTQTPLSLPVSLGDQASISCRSSQSLENTNGNTFLNWFLQKPGQSPQLLIYRVSNRFSGVPDRFSGSGSGTDFTLKISRVEAEDLGVYFCLQVTHVPFTFGSGTKLEIK | 0.15 OD655
AD163.10.7 (antibody, V domains shown, mouse hybridoma antibody; also called muAb4) VH: LVQPGGSLSLSCAASGFTFSDYYMSWVRQPPGKALEWLGFIRNKANGYTTEFSASVKGRFTISRDNSQSILYLQMNALRAEDSATYYCARYGGLRQGWYFDVWGTGTTVTVSS VL: DIQMTQTTSSLSASLGDRVTISCRASQDIRNYLNWYQQKPDGTVKLLIYYTSRLHSGVPSRFSGSGSGTDYSLTISNLEQEDIATYFCQQGKTLPWTFGGGSKLEMK | 0.16 OD655
AD163.7.2 (antibody, V domains shown, mouse hybridoma antibody; also called muAb8) VH: QVQLQQSGPELVKSGASVKISCKASGYTFTDYYINWVKQRPGQGLEWIGWIFPGSGSVYCNEQFKGQATLTVDRSSSTAYMLLSSLTSEDSAVYFCASSLGKFAYWGQGTLVTVSA VL: DIVMTQSQKFMSTTVGDRVSITCKASQSVVTAVAWYQQKPGQSPKLLIYSASNRYTGVPDRFTGSGSGTDFALTIRTMQSEDLADYFCQQYSSYPYTFGGGTKLEIK | 0.13 OD655

Now look at this one.
Problem: Record request: Monocyte activation (THP1-Xblue, OD655) value, item AD166.4.4 (antibody, V domains shown, mouse hybridoma antibody; also called muAb2) VH: QVQLQQSGAELMKPGASAKLSCKATGYTFTGYWIQWVKQRPGHGLEWIGEILPGGDHTKYNEKFRGKATFTSDTSSNTVYMQLSSLTTEDSAIYYCARVGGDYWGQGTTLTVSS VL: DVVMTQTPLSLPVSLGDQASISCRSSQSLVNSNENTYLHWYLQKPGQSPKLLIYKVFNRYSGVPDRFSGSGSGTDFTLKISRVEAEDLGVYFCFQSTHVPWTFGGGTKLEIK
Solution: 0.24 OD655
